- subject of test: UniProt P08842
- Sequence (P08842 whole entry): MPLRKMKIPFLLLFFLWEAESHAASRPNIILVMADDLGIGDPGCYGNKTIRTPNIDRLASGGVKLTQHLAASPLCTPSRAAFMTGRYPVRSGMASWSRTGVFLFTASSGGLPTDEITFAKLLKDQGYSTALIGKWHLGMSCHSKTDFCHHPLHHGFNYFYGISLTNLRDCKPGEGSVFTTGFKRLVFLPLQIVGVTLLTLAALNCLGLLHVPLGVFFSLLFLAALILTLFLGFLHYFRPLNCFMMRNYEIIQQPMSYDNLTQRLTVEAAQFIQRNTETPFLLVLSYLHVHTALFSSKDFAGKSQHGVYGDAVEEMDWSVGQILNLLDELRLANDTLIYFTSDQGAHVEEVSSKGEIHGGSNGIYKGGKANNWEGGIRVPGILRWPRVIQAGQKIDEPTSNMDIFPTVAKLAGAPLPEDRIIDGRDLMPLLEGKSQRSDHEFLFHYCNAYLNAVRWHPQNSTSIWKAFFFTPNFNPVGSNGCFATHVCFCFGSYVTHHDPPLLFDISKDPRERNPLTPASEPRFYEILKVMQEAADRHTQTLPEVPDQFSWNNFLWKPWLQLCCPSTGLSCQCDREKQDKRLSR
- assay explanation: In vitro inhibition of Estrone Sulfatase in intact MCF-7 breast cancer cells at a concentration of 1.0 uM.
- Assay type: cell-based
- cond: MCF7
Listing: inhibition of selected molecules

Some solved cases for reference:
CC1CC(=O)Oc2cc(OS(N)(=O)=O)ccc21 (stereo not drawn)	< 10%
Cc1cc(=O)oc2cc(O)c(OS(N)(=O)=O)cc12	< 10%

Switching to the query record.
Query block: Determine reported inhibition for Cc1cc(=O)oc2cc(OS(N)(=O)=O)c(OS(N)(=O)=O)cc12 ; test system: UniProt P08842.
Result block: < 10%
